# TESTED SYSTEM: Adenosine receptor A3 (Homo sapiens, UniProt P0DMS8); further: in other assays of this panel Not Active means under 50% inhibition at 10 µM;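 further: radioligand binding assay with AB-MECA serving as the labeled ligand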
# Sequence (P0DMS8 whole entry): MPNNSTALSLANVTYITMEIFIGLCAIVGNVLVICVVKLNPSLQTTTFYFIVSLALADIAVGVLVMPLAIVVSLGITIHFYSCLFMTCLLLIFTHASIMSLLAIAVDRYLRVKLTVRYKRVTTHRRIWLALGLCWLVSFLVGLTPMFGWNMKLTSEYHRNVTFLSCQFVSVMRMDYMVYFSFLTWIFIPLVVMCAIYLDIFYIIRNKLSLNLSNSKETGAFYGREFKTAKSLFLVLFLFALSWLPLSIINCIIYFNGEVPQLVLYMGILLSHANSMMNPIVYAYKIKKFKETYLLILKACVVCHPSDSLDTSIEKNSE
# Type: cell membranes, CHO-K1, Membrane
# SETTINGS: cho-k1
ENDPOINT LABEL: IC50

CO[C@H]1C[C@@H]2CC[C@@H](C)[C@@](O)(O2)C(=O)C(=O)N2CCCC[C@H]2C(=O)O[C@H]([C@H](C)C[C@@H]2CC[C@@H](O)[C@H](OC)C2)CC(=O)[C@H](C)/C=C(\C)[C@@H](O)[C@@H](OC)C(=O)[C@H](C)C[C@H](C)/C=C/C=C/C=C/1C ... Not Active
O=c1[nH]c2ccccc2n1CCCN1CCC(n2c(=O)[nH]c3cc(Cl)ccc32)CC1 ... Not Active
COc1ccc(CN2CCNCC2)c(OC)c1OC ... Not Active

----------
# TESTED SYSTEM: Estrogen receptor beta (Homo sapiens); further: in other assays of this panel Not Active means under 50% inhibition at 10 µM
# Sequence (Q92731 whole entry): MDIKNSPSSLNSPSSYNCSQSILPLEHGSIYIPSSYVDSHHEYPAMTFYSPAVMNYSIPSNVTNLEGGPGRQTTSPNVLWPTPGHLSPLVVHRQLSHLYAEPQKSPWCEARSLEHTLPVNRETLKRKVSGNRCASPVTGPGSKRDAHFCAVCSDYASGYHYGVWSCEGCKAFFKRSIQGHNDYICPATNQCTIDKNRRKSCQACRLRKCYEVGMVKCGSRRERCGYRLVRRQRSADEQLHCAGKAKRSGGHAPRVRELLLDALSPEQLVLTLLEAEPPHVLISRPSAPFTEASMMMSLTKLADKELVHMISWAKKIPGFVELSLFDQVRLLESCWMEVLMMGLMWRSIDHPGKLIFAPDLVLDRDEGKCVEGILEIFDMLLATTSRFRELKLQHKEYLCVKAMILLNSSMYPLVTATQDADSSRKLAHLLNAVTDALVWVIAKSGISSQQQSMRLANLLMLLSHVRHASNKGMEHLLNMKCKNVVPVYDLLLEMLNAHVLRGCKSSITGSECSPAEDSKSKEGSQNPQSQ
# SETTINGS: sf9
ENDPOINT LABEL: IC50

CCCCC1C(=O)N(c2ccccc2)N(c2ccccc2)C1=O ... Not Active
CCn1cc(C(=O)O)c(=O)c2cc(F)c(N3CCNCC3)nc21 ... Not Active
Nc1ccc(S(=O)(=O)Nc2ncccn2)cc1 ... Not Active

----------
# TESTED SYSTEM: Interstitial collagenase (Homo sapiens, UniProt P03956);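 further: MMP-1 enzyme inhibition assay using a peptide substrate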; further: in other assays of this panel Not Active means under 50% inhibition at 10 µM
# Sequence (P03956 whole entry): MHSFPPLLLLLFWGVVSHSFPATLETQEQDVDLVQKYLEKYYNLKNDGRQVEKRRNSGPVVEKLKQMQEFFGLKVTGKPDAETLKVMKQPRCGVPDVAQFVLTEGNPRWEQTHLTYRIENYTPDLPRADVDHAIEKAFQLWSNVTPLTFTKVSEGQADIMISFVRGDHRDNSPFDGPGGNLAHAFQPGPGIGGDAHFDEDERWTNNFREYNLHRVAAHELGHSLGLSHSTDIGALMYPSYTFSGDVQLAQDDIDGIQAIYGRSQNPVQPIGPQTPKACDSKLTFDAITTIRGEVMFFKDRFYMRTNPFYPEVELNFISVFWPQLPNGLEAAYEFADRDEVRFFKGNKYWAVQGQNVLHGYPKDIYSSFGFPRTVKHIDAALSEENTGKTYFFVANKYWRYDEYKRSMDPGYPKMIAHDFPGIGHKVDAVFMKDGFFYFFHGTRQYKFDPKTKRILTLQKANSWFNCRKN
# Format: tissue-based, Rheumatoid synovial fibroblasts
ENDPOINT LABEL: IC50

NC(=O)N1c2ccccc2C=Cc2ccccc21 [CARBAMAZEPINE] ... Not Active
CN(CCOc1ccc(CC2SC(=O)NC2=O)cc1)c1ccccn1 (centres undefined) [ROSIGLITAZONE] ... Not Active
Nc1nc(N)nc(NC2CC2)n1 [CYROMAZINE] ... Not Active
NC[C@@H]1O[C@H](O[C@H]2[C@@H](O)[C@H](O[C@@H]3[C@@H](O)[C@H](N)C[C@H](N)[C@H]3O[C@H]3O[C@H](CN)[C@@H](O)[C@H](O)[C@H]3N)O[C@@H]2CO)[C@H](N)[C@@H](O)[C@@H]1O [FRAMYCETIN] ... Not Active
CCN(CC)CC#CCOC(=O)C(O)(c1ccccc1)C1CCCCC1 (centres undefined) [OXYBUTYNIN] ... Not Active
C#C[C@]1(O)CC[C@H]2[C@@H]3CCC4=Cc5oncc5C[C@]4(C)[C@H]3CC[C@@]21C [DANAZOL] ... Not Active

Now examine the next entry.
Which measured IC50 value corresponds to O=P(O)(O)C(O)(Cc1cccnc1)P(=O)(O)O [RISEDRONIC ACID] ? Not Active

----------
# IC50 annotations
# TESTED SYSTEM: Beta-3 adrenergic receptor (Homo sapiens)
# Sequence (P13945 whole entry): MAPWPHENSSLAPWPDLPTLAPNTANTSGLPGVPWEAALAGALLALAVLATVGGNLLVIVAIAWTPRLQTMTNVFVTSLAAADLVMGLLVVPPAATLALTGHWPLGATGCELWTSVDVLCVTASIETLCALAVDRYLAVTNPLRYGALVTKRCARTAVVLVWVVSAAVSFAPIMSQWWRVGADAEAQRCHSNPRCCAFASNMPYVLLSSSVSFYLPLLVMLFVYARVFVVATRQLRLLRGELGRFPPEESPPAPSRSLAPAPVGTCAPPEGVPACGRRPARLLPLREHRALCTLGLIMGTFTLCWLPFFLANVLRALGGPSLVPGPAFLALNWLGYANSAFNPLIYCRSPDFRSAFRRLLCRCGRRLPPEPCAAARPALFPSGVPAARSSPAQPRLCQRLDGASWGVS
# EXPERIMENT SUMMARY: DRUGMATRIX: Adrenergic beta3 radioligand binding (ligand: [125I] Cyanopindolol)
# Type: cell membranes, HEK293, Membrane
# SETTINGS: Not Active = under 50% inhibition at 10 µM; read-out: IC50
State the answer as a number, implicitly in µM.

// known answers, use as guide
OCCN1CCN(CCCN2c3ccccc3Sc3ccc(C(F)(F)F)cc32)CC1 ... 29.5
CC(C)OC(=O)C(C)(C)Oc1ccc(C(=O)c2ccc(Cl)cc2)cc1 [FENOFIBRATE] ... 124
CC(C)(C)NC[C@H](O)COc1nsnc1N1CCOCC1 ... 0.452

Now examine the next entry.
Which measured IC50 value corresponds to "C#C[C@]1(O)CC[C@H]2[C@@H]3CCC4=Cc5oncc5C[C@]4(C)[C@H]3CC[C@@]21C" ? 17

----------
# TESTED SYSTEM: Muscarinic acetylcholine receptor M2 (Homo sapiens, UniProt P08172); further: in other assays of this panel Not Active means under 50% inhibition at 10 µM
# Sequence (P08172 whole entry): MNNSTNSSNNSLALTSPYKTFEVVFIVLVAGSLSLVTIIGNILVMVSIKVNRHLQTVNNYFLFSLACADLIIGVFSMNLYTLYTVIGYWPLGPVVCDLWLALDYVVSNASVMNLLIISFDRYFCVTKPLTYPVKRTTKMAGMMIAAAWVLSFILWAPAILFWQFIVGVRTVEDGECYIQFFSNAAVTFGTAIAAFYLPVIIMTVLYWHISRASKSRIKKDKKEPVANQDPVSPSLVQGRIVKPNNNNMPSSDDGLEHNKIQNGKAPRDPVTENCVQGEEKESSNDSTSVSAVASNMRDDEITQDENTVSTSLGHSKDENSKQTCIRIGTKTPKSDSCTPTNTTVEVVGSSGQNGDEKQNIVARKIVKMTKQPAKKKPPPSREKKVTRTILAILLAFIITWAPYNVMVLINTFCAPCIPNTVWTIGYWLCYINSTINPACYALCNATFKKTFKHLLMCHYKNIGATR
# Assay type: cell membranes, CHO-K1, Membrane
# SETTINGS: read-out: IC50
ENDPOINT LABEL: pIC50
Recall that pIC50 is obtained by taking minus log10 of the concentration measured in molar.

Hello, I am looking for reported pIC50 with Muscarinic acetylcholine receptor M2 (Homo sapiens, UniProt P08172) for "CC[C@]1(O)CC[C@H]2[C@@H]3CCC4=CCCC[C@@H]4[C@H]3CC[C@@]21C" . Could you help? 6.53

----------
# TESTED SYSTEM: Protein kinase C alpha type (Homo sapiens); further: in other assays of this panel Not Active means under 50% inhibition at 10 µM;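 further: inhibition of PKCalpha kinase activity measured in an enzyme assay with histone as the phosphorylation substrate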
# Type: cell-based
# SETTINGS: sf9
ENDPOINT LABEL: IC50

// known answers, use as guide
CC1=C(CC(=O)O)c2cc(F)ccc2/C1=C\c1ccc(S(C)(=O)=O)cc1 ... Not Active
CC[C@]1(O)CC[C@H]2[C@@H]3CCC4=CCCC[C@@H]4[C@H]3CC[C@@]21C ... Not Active
CCn1cc(C(=O)O)c(=O)c2cc(F)c(N3CCNCC3)nc21 ... Not Active
CN(Cc1cnc2nc(N)nc(N)c2n1)c1ccc(C(=O)N[C@@H](CCC(=O)O)C(=O)O)cc1 [METHOTREXATE] ... Not Active
CC(C)(Oc1ccc(C2CC2(Cl)Cl)cc1)C(=O)O (stereo not drawn) [CIPROFIBRATE] ... Not Active
COc1ccccc1OCC(O)COC(N)=O (stereo not drawn) ... Not Active
CN(C(=O)CCCOc1ccc2[nH]c(=O)ccc2c1)C1CCCCC1 [CILOSTAMIDE] ... Not Active
CC[C@H](C)C(=O)O[C@H]1C[C@@H](C)C=C2C=C[C@H](C)[C@H](CC[C@@H]3C[C@@H](O)CC(=O)O3)[C@H]21 ... Not Active
CC(C)(Sc1cc(C(C)(C)C)c(O)c(C(C)(C)C)c1)Sc1cc(C(C)(C)C)c(O)c(C(C)(C)C)c1 ... Not Active
COc1ccc(/C=C/C(=O)Nc2ccccc2C(=O)O)cc1OC ... Not Active

Hello, I am looking for reported IC50 with Protein kinase C alpha type (Homo sapiens) for "CCS(=O)(=O)CCn1c([N+](=O)[O-])cnc1C" . Could you help? Not Active

Hello, I am looking for reported IC50 with Protein kinase C alpha type (Homo sapiens) for "C[C@]12C/C(=C/O)C(=O)C[C@@H]1CC[C@@H]1[C@@H]2CC[C@@]2(C)[C@H]1CC[C@]2(C)O" . Could you help? Not Active

Hello, I am looking for reported IC50 with Protein kinase C alpha type (Homo sapiens) for "C[C@]12CC[C@H]3[C@@H](CCC4=CC(=O)CC[C@@]43C)[C@@H]1CC[C@@H]2O" . Could you help? Not Active

Hello, I am looking for reported IC50 with Protein kinase C alpha type (Homo sapiens) for "C[C@H](C(=O)O)c1cccc(C(=O)c2ccccc2)c1" . Could you help? Not Active

Hello, I am looking for reported IC50 with Protein kinase C alpha type (Homo sapiens) for Nc1nc2c(c(=O)[nH]1)N(C=O)C(CNc1ccc(C(=O)N[C@@H](CCC(=O)O)C(=O)O)cc1)CN2 (stereo partly drawn) . Could you help? Not Active

Hello, I am looking for reported IC50 with Protein kinase C alpha type (Homo sapiens) for "O=c1cc(-c2ccccc2)oc2ccc3ccccc3c12" . Could you help? Not Active

Hello, I am looking for reported IC50 with Protein kinase C alpha type (Homo sapiens) for COC(=O)c1ccccc1O [METHYL SALICYLATE] . Could you help? Not Active

Hello, I am looking for reported IC50 with Protein kinase C alpha type (Homo sapiens) for "O=C(O)C(Cl)(Cl)Cl" . Could you help? Not Active
